Reference source: paper PMC4336329

In this section we review reported hERG current change (%, negative = inhibition) at 10uM values for a set of compounds.
Target: human ether-à-go-go-related gene (hERG) potassium channel (human);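 also: peak tail current of the secondary pulse compared with the same well before compound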
Experiment: primary screen, population patch clamp on CHO cells stably expressing hERG; higher = less effect of the substance
Procedure: Briefly, Chinese hamster ovary (CHO) cells stably expressing the hERG channel were dislodged from tissue culture flasks and dispensed into PPC plates. […] During the recording, background leak currents were estimated by a 100 ms step to -80 mV from an initial holding potential of -70 mV and subtracted from the subsequent current measurement. The campaign was conducted in two phases using slight differences in recording protocol. […]
Hit rate of the full screen: of about 310,000 compounds, about 14,000 (4.5%) showed an effect of 50% or more. Effects have a minus sign here. What follows is part of a selection rich in strong results, with near analogues and random picks from the rest.
Answer in %, number only, no unit symbol.

Recorded hERG current change (%, negative = inhibition) at 10uM, per entry:
{"structure-as-smiles": "C=CCN(CC=C)C(=O)C(=O)c1cc(C)n(-c2ccc([N+](=O)[O-])cc2)c1C", "study-system": "human ether-à-go-go-related gene (hERG) potassium channel (human)", "result-value": -63.4}
{"structure-as-smiles": "Cc1cc(C(=O)C(=O)NC(C)C)c(C)n1-c1ccc([N+](=O)[O-])cc1", "study-system": "human ether-à-go-go-related gene (hERG) potassium channel (human)", "result-value": -22.8}
{"structure-as-smiles": "O=C1c2ccc3c4c(ccc(c24)C(=O)N1c1ccc(O)cc1)C(=O)N(c1ccc(O)cc1)C3=O", "study-system": "human ether-à-go-go-related gene (hERG) potassium channel (human)", "result-value": 23.3}
{"structure-as-smiles": "O=C(/C=C/c1ccccc1)OCc1cnc(Cl)s1", "study-system": "human ether-à-go-go-related gene (hERG) potassium channel (human)", "result-value": -6.4}

Next up:
The reported value for Cc1cc2c(cc1S(=O)(=O)N1CCCC1)n(C)c(=O)c(=O)n2C in terms of hERG current change (%, negative = inhibition) at 10uM is -4.62

###

biological target: human ether-à-go-go-related gene (hERG) potassium channel (human, UniProt Q12809); test: primary screen, population patch clamp on CHO cells stably expressing hERG; higher = less effect of the substance;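 also: peak tail current of the secondary pulse compared with the same well before compound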
Sequence (Q12809 whole entry, looked up): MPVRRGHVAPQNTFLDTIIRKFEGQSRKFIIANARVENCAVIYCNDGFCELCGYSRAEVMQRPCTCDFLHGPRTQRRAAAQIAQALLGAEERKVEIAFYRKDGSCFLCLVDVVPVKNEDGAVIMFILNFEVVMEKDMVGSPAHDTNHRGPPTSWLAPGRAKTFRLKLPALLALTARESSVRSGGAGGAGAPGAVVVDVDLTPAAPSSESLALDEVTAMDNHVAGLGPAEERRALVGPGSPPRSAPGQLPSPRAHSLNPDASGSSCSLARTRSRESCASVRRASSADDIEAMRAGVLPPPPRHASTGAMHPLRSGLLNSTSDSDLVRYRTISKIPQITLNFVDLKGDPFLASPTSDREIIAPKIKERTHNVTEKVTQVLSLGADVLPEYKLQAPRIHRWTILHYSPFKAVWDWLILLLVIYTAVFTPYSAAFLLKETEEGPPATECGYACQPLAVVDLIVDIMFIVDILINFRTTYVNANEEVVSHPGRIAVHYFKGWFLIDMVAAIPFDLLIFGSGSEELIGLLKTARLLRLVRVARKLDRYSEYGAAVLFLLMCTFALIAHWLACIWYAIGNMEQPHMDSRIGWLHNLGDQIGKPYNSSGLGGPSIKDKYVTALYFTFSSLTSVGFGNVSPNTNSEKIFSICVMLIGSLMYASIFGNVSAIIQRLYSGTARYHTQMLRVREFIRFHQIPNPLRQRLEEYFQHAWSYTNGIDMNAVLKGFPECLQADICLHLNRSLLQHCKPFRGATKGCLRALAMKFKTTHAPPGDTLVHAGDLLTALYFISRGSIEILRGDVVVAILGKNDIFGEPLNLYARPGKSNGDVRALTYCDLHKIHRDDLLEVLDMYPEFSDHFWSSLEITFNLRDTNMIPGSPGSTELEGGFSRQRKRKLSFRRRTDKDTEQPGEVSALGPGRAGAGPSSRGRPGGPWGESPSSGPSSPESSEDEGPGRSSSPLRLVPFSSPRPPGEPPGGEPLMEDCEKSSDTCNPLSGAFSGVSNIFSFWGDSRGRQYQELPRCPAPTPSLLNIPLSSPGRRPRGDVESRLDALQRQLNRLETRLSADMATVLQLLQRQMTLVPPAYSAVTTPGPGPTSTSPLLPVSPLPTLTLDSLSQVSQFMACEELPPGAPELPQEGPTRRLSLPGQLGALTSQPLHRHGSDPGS
The whole screen tested about 310,000 compounds, of which about 14,000 (4.5%) showed an effect of 50% or more. The effect is printed as a negative number. The sample as a whole holds a higher share of strong results than the screen did.
readout: hERG current change (%, negative = inhibition) at 10uM (%)
Answer in %, number only, no unit symbol.

Recorded hERG current change (%, negative = inhibition) at 10uM, per entry:
{"molecule": "COc1cc(NS(=O)(=O)c2ccc(NC(C)=O)cc2)ncn1", "study-system": "human ether-à-go-go-related gene (hERG) potassium channel (human, UniProt Q12809)", "reading-unit": "%", "result-value": 0.81}
{"molecule": "CN1CCN(c2nc(-c3ccc(Cl)c(Cl)c3)nc3ccccc23)CC1", "study-system": "human ether-à-go-go-related gene (hERG) potassium channel (human, UniProt Q12809)", "reading-unit": "%", "result-value": 6.63}
{"molecule": "COc1nc(-c2ccc(Cl)cc2Cl)nc2ccccc12", "study-system": "human ether-à-go-go-related gene (hERG) potassium channel (human, UniProt Q12809)", "reading-unit": "%", "result-value": 6.59}
{"molecule": "O=C(c1ccc(-n2cccc2)cc1)N1CCN(Cc2ccccc2)CC1", "study-system": "human ether-à-go-go-related gene (hERG) potassium channel (human, UniProt Q12809)", "reading-unit": "%", "result-value": -81.1}
{"molecule": "COCCCNC(=O)CCc1nc2cccnc2n1Cc1ccccc1", "study-system": "human ether-à-go-go-related gene (hERG) potassium channel (human, UniProt Q12809)", "reading-unit": "%", "result-value": -29.8}
{"molecule": "C=CCNC(=S)N1CCN(Cc2ccccc2)CC1.O=C(O)C(=O)O", "study-system": "human ether-à-go-go-related gene (hERG) potassium channel (human, UniProt Q12809)", "reading-unit": "%", "result-value": 6.48}

The reported value for CCOC(=O)c1c(C)[nH]c(C)c1S(=O)(=O)N1CCOCC1 in terms of hERG current change (%, negative = inhibition) at 10uM is 13.8

The reported value for Cc1cc(NCCCN2CCOCC2)n2c(nc3ccccc32)c1C#N in terms of hERG current change (%, negative = inhibition) at 10uM is -23.3

The reported value for N#CSc1ccc2oc(C3=NCCN3)cc2c1 in terms of hERG current change (%, negative = inhibition) at 10uM is 0.521

The reported value for CCCC/C(O)=C1\C(=O)CC(C)(C)CC1=NCCCCCC(=O)O in terms of hERG current change (%, negative = inhibition) at 10uM is 7.59

The reported value for O=C(O)c1ccccc1-c1cc2ccccc2[nH]1 in terms of hERG current change (%, negative = inhibition) at 10uM is 19.7

The reported value for O=C(CCc1nc2cccnc2n1Cc1ccccc1)NCCc1ccc(Cl)cc1 in terms of hERG current change (%, negative = inhibition) at 10uM is -78.6

The reported value for O=C(COC(=O)c1cn(-c2ccccc2)nc1-c1cccnc1)NC1CC1 in terms of hERG current change (%, negative = inhibition) at 10uM is -0.964

The reported value for O=C(Nc1cccnc1)c1sc(Nc2ccccc2F)nc1-c1ccccc1 in terms of hERG current change (%, negative = inhibition) at 10uM is 20.5

The reported value for Cc1cc(NCC2CCCO2)n2c(nc3ccccc32)c1C#N (centres unmarked) in terms of hERG current change (%, negative = inhibition) at 10uM is -21.2

The reported value for O=C(c1ccc2ccccc2c1)N1CCN(Cc2ccccc2)CC1 in terms of hERG current change (%, negative = inhibition) at 10uM is -24.4

The reported value for Cc1cc(NCCN2CCOCC2)n2c(nc3ccccc32)c1C#N in terms of hERG current change (%, negative = inhibition) at 10uM is -6.09

The reported value for O=C(CCNC(=O)c1ccc([N+](=O)[O-])cc1)Nc1nccs1 in terms of hERG current change (%, negative = inhibition) at 10uM is 1.93

The reported value for CCCc1cc(NCCCO)n2c(nc3ccccc32)c1C#N in terms of hERG current change (%, negative = inhibition) at 10uM is -16.6

The reported value for COCCCNC(=O)CCc1nc2cccnc2n1Cc1ccc(OC)cc1 in terms of hERG current change (%, negative = inhibition) at 10uM is 10.8

###

target: human ether-à-go-go-related gene (hERG) potassium channel (human, UniProt Q12809); assay: primary screen, population patch clamp on CHO cells stably expressing hERG; higher = less effect of the substance;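 also: peak tail current of the secondary pulse compared with the same well before compound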
The campaign covered roughly 310,000 compounds. About 14,000 (4.5%) showed an effect of 50% or more. The effect is printed as a negative number. The sample as a whole holds a higher share of strong results than the screen did.
readout: hERG current change (%, negative = inhibition) at 10uM (%)
Answer in %, number only, no unit symbol.

{"compound": "O=C(Nc1ccccc1Cl)c1sccc1-c1ccccc1", "reading-unit": "%", "result-value": -2.39}

The reported value for CCOc1ccccc1C(=O)NCCCN1CCN(CCCNC(=O)c2ccccc2OCC)CC1 in terms of hERG current change (%, negative = inhibition) at 10uM is -53.3

The reported value for COc1ccc(S(=O)(=O)Nc2c(NC3CCCCC3)c3ccccc3oc2=O)cc1OC in terms of hERG current change (%, negative = inhibition) at 10uM is -6.99

The reported value for O=C(NCCC(=O)N1CCN(c2ncccn2)CC1)c1ccccc1 in terms of hERG current change (%, negative = inhibition) at 10uM is 11.6

The reported value for CN(Cc1nc2ccccc2c(=O)[nH]1)CC(O)COCc1ccco1 (centres unmarked) in terms of hERG current change (%, negative = inhibition) at 10uM is -13.9

The reported value for O=C(NCCCN1CCN(CCCNC(=O)c2ccccc2F)CC1)c1ccccc1F in terms of hERG current change (%, negative = inhibition) at 10uM is -53

The reported value for COc1ccc(C(C)NC(=O)CCc2ccccc2)cc1 (centres unmarked) in terms of hERG current change (%, negative = inhibition) at 10uM is 10

The reported value for OC1C=CSc2nc3ccccc3n21 (centres unmarked) in terms of hERG current change (%, negative = inhibition) at 10uM is 4.02

The reported value for CCOc1ccccc1C(=O)NCCNC(=O)c1ccccc1OCC in terms of hERG current change (%, negative = inhibition) at 10uM is -2.01

The reported value for CCCNc1c(NS(=O)(=O)c2ccc(OC)c(OC)c2)c(=O)oc2ccccc12 in terms of hERG current change (%, negative = inhibition) at 10uM is -74.1

The reported value for Cc1ccc(OCc2cc(C(=O)NCc3cn4ccccc4n3)no2)cc1C in terms of hERG current change (%, negative = inhibition) at 10uM is -38.7

The reported value for CCOc1ccccc1C(=O)NCCCCNC(=O)c1ccccc1OCC in terms of hERG current change (%, negative = inhibition) at 10uM is -31.4
